Property: pIC50; scope: individual compounds
System: 922993-354-T-J3-PDC complex spheroid viability;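 note: spheroids exposed to the agents for one week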
PROTOCOL NOTES: Anticancer human tumor 922993-354-T-J3-PDC patient-derived endometrial carcinoma cell line growth inhibition [POLQ]
PARTICULARS: curve of first compound; second compound 0.316 µM
Description: Multicellular complex tumor spheroid response to Polymerase (POL) inhibitors (novobiocin, ART-558, RP6685) in combination with a variety of drugs and investigational agents in selected tumor cell lines The POL inhibitors (novobiocin, ART-558, and RP6685) were evaluated both individually and in combination with standard of care and investigational anticancer small molecules within a complex spheroid model of solid tumors. . […]
pIC50: −log10 of the molar value.

COMPOUND	STUDY TARGET	pIC50
CCCS(=O)(=O)Nc1ccc(F)c(C(=O)c2c[nH]c3ncc(-c4ccc(Cl)cc4)cc23)c1F + COC1C(OC(N)=O)C(O)C(Oc2ccc3c(O)c(NC(=O)c4ccc(O)c(CC=C(C)C)c4)c(=O)oc3c2C)OC1(C)C	922993-354-T-J3-PDC complex spheroid viability	< 5.00
COc1cccc2c1C(=O)c1c(O)c3c(c(O)c1C2=O)CC(O)(C(=O)CO)CC3OC1CC(N)C(O)C(C)O1 (stereo not given) + Cc1cccc(N(C)C(=O)C2C(O)CCN2c2nc(C)cc(C(F)(F)F)c2C#N)c1	922993-354-T-J3-PDC complex spheroid viability	6.02
O=C(Nc1ccc(O)c(NS(=O)(=O)c2ccc(F)cc2)c1)c1ccc(-c2ccccc2)cc1 + Cc1cccc(N(C)C(=O)C2C(O)CCN2c2nc(C)cc(C(F)(F)F)c2C#N)c1	922993-354-T-J3-PDC complex spheroid viability	< 5.00
O=C(c1cc(Cc2n[nH]c(=O)c3ccccc23)ccc1F)N1CCN(C(=O)C2CC2)CC1 + COC1C(OC(N)=O)C(O)C(Oc2ccc3c(O)c(NC(=O)c4ccc(O)c(CC=C(C)C)c4)c(=O)oc3c2C)OC1(C)C	922993-354-T-J3-PDC complex spheroid viability	< 5.00
C=CC(=O)N1CCN(c2nc(=O)n(-c3c(C)ccnc3C(C)C)c3nc(-c4c(O)cccc4F)c(F)cc23)C(C)C1 (stereo not given) + Nc1ccc(C#CCN(C(=O)Cc2ncc(C(F)(F)F)cc2C(F)(F)F)c2ccc(F)cc2)nn1	922993-354-T-J3-PDC complex spheroid viability	< 5.00
CNCc1ccc(-c2[nH]c3cc(F)cc4c3c2CCNC4=O)cc1 + Cc1cccc(N(C)C(=O)C2C(O)CCN2c2nc(C)cc(C(F)(F)F)c2C#N)c1	922993-354-T-J3-PDC complex spheroid viability	< 5.00
COc1cc(C2c3cc4c(cc3C(OC3OC5COC(C)OC5C(O)C3O)C3COC(=O)C23)OCO4)cc(OC)c1O (stereo not given) + Nc1ccc(C#CCN(C(=O)Cc2ncc(C(F)(F)F)cc2C(F)(F)F)c2ccc(F)cc2)nn1	922993-354-T-J3-PDC complex spheroid viability	< 5.00
CC(=O)O[C@H]1C(=O)[C@@]2(C)[C@H]([C@H](OC(=O)c3ccccc3)[C@]3(O)C[C@H](OC(=O)[C@H](O)[C@@H](NC(=O)c4ccccc4)c4ccccc4)C(C)=C1C3(C)C)[C@]1(OC(C)=O)CO[C@@H]1C[C@@H]2O + Nc1ccc(C#CCN(C(=O)Cc2ncc(C(F)(F)F)cc2C(F)(F)F)c2ccc(F)cc2)nn1	922993-354-T-J3-PDC complex spheroid viability	< 5.52
Nc1ccn(C2OC(CO)C(O)C2(F)F)c(=O)n1 (stereo not given) + Nc1ccc(C#CCN(C(=O)Cc2ncc(C(F)(F)F)cc2C(F)(F)F)c2ccc(F)cc2)nn1	922993-354-T-J3-PDC complex spheroid viability	> 7.50
CC[C@@]1(O)C(=O)OCc2c1cc1n(c2=O)Cc2cc3c(CN(C)C)c(O)ccc3nc2-1 + Nc1ccc(C#CCN(C(=O)Cc2ncc(C(F)(F)F)cc2C(F)(F)F)c2ccc(F)cc2)nn1	922993-354-T-J3-PDC complex spheroid viability	< 7.00
